tested system: MpPA14 (Marinomonas primoryensis)
method: Isothermal titration calorimetry
Assay type: binding
condition context: Kd (dissociation constant, ITC), 30°C, free sugar in solution
parameter measured: Kd (µM)

compound	number
OC[C@H]1OC(O)[C@H](O)[C@@H](O)[C@@H]1O (stereo partly shown)	350

---

# Lookup of reported pKd keyed by entry
tested system: MpPA14 (Marinomonas primoryensis, UniProt A1YIY3)
Sequence (A1YIY3 entry or part of it): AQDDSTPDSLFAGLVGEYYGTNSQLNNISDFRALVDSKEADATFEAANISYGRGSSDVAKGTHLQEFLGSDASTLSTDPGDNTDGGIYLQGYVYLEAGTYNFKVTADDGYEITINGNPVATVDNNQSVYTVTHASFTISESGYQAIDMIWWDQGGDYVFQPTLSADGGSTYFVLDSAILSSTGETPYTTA
method: Dextran-based comparative competition assay (MpPA14)
Assay type: binding
condition context: GFP-MpPA14 bound to Superdex 200 resin released by free sugar, A280; pH 9, 5 mM CaCl2; – = no detectable binding (footnote a); read-out: Kdapp (apparent dissociation constant)
pKd: −log10 of the molar value.

compound	pKd
COC1OC(CO)C(O)C(O)C1O [Methyl-α-glucose, methyl-α-D-glucose]	2.68
O=C[C@H](O)[C@H](O)[C@H](O)CO [Ribose, D-Ribose]	2.17

Value source: paper PMC8092209
